Taken from patent US12227488B2.

Molecular target: GSPT1 (Homo sapiens, UniProt P15170+Q96SW2)
Sequence (P15170 whole entry, the tested form may be a part): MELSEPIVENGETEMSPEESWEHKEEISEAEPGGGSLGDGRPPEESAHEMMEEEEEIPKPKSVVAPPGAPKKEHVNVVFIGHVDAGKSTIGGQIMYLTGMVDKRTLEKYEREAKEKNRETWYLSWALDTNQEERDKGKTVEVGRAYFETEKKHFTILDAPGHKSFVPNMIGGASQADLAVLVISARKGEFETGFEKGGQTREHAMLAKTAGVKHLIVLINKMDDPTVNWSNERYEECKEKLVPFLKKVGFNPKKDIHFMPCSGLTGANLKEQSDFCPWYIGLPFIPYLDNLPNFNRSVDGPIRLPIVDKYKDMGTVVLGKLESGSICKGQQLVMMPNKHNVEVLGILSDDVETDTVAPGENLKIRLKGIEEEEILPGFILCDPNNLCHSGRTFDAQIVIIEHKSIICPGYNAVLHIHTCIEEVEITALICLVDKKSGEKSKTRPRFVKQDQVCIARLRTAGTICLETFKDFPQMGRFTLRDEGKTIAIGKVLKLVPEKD
Sequence (Q96SW2 whole entry, the tested form may be a part): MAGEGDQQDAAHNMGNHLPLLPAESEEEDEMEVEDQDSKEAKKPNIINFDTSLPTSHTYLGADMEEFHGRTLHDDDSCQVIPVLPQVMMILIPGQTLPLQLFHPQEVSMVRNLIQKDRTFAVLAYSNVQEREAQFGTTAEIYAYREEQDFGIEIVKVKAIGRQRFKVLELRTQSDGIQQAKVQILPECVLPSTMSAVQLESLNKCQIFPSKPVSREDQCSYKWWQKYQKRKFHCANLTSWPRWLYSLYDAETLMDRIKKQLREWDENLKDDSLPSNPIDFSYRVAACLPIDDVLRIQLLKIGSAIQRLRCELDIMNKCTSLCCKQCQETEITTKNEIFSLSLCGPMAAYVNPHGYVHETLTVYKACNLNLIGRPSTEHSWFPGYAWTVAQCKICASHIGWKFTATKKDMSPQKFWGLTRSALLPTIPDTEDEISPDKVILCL
Sequence (Q16531 whole entry partner, the tested form may be a part): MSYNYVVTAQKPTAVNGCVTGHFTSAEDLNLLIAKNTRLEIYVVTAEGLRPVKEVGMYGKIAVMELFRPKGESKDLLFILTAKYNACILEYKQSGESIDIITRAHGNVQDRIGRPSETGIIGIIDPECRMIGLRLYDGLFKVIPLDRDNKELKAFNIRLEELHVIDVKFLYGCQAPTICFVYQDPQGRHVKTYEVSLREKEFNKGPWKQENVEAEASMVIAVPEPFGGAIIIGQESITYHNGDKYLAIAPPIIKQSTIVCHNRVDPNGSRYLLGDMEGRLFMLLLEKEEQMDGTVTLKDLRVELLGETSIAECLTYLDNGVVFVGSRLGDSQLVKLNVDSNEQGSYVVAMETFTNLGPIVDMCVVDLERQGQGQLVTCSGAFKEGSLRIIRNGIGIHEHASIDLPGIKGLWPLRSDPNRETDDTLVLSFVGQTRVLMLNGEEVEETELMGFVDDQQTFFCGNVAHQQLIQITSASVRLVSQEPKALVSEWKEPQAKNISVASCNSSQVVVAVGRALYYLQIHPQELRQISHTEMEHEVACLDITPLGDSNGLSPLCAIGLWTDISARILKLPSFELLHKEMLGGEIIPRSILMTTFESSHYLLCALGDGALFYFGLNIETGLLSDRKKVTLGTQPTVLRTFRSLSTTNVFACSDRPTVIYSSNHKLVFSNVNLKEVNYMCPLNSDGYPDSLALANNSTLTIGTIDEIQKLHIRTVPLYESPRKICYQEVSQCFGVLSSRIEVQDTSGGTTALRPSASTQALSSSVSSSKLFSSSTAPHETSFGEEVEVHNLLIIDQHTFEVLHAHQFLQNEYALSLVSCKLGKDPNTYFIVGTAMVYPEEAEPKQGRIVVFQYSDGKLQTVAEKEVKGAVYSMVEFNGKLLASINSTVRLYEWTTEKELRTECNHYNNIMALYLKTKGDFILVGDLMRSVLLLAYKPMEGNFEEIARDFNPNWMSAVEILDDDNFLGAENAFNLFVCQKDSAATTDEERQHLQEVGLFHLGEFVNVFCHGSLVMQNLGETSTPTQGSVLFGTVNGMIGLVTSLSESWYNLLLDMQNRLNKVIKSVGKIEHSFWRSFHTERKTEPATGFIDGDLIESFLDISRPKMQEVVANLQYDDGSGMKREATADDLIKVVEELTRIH
Experiment: Cellular degradation assay, eGFP-GSPT1 fusion with mCherry reporter in Flp-In 293 cells
Type: cell-based
Set-up: expressed in transfected cells; host or cells: Flp-In 293
Details: compound concentration 2.00E−05; 5 h incubation; n=1

[
  {
    "MOLECULE": "O=C1CCC(N2C(=O)C=C(Nc3cccc(Cl)c3)C2=O)C(=O)N1 (centres unmarked) [Compound 26]",
    "GSPT1 GFP/RFP Relative Abundance": 0.952
  },
  {
    "MOLECULE": "Cc1ccc(NC(=O)N(C)Cc2cccc(NC3=CC(=O)N(C4CCC(=O)NC4=O)C3=O)c2)cc1Cl (centres unmarked) [Compound 52]",
    "GSPT1 GFP/RFP Relative Abundance": 0.308
  },
  {
    "MOLECULE": "O=C1CCC(N2C(=O)C=C(Nc3ccc(-c4ccccc4)cc3)C2=O)C(=O)N1 (centres unmarked) [Compound 38]",
    "GSPT1 GFP/RFP Relative Abundance": 1.174
  },
  {
    "MOLECULE": "O=C1CCC(N2C(=O)C=C(Nc3ccc4cc[nH]c4c3)C2=O)C(=O)N1 (centres unmarked) [Compound 37]",
    "GSPT1 GFP/RFP Relative Abundance": 0.787
  },
  {
    "MOLECULE": "CCOC(=O)CN(C)C1=CC(=O)N(C2CCC(=O)NC2=O)C1=O (centres unmarked) [Compound 17]",
    "GSPT1 GFP/RFP Relative Abundance": 0.942
  },
  {
    "MOLECULE": "O=C1CCC(N2C(=O)C=C(Nc3cnc4ccccc4c3)C2=O)C(=O)N1 (centres unmarked) [Compound 27]",
    "GSPT1 GFP/RFP Relative Abundance": 0.881
  },
  {
    "MOLECULE": "Cc1ccc(NC(=O)Nc2ccc(NC3=CC(=O)N(C4CCC(=O)NC4=O)C3=O)cc2)cc1Cl (centres unmarked) [Compound 42]",
    "GSPT1 GFP/RFP Relative Abundance": 0.118
  },
  {
    "MOLECULE": "O=C1CCC(N2C(=O)C=C(Nc3nccs3)C2=O)C(=O)N1 (centres unmarked) [Compound 19]",
    "GSPT1 GFP/RFP Relative Abundance": 1.023
  }
]

====

Molecular target: SALL4 ZNF1-2 (Homo sapiens, UniProt Q96SW2+Q9UJQ4)
Construct: IKZF1Δ, IKZF2Δ, GSPT1 and SALL4 ZnF1-2 were subcloned; expressed in transfected cells; host or cells: Flp-In 293
Sequence (Q9UJQ4 378-438 limits assumed): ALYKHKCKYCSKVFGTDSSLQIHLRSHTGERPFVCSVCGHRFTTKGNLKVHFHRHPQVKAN
Sequence (Q96SW2 whole entry): as the sequence (Q96SW2 whole entry, the tested form may be a part) above
Sequence (Q16531 whole entry partner): as the sequence (Q16531 whole entry partner, the tested form may be a part) above
Test: Cellular degradation assay, eGFP-SALL4 ZnF1-2 fusion with mCherry reporter in Flp-In 293 cells
Format: cell-based
Settings: compound concentration 2.00E−06; 5 h incubation; n=1
ATTRIBUTE_MEASURED: SALL4 ZNF1-2 GFP/RFP Relative Abundance

[
  {
    "COMPOUND": "Cc1ccc(NC2=CC(=O)N(C3CCC(=O)NC3=O)C2=O)cc1Cl (stereo not drawn) [Compound 3]",
    "SYSTEM_UNDER_TEST": "SALL4 ZNF1-2 (Homo sapiens, UniProt Q96SW2+Q9UJQ4)",
    "REPORTED": 0.884
  },
  {
    "COMPOUND": "O=C1CCC(N2C(=O)C=C(Nc3ccc(-c4ccccc4)cc3)C2=O)C(=O)N1 (stereo not drawn) [Compound 38]",
    "SYSTEM_UNDER_TEST": "SALL4 ZNF1-2 (Homo sapiens, UniProt Q96SW2+Q9UJQ4)",
    "REPORTED": 0.887
  },
  {
    "COMPOUND": "O=C1CCC(N2C(=O)C=C(Nc3nc[nH]n3)C2=O)C(=O)N1 (stereo not drawn) [Compound 18]",
    "SYSTEM_UNDER_TEST": "SALL4 ZNF1-2 (Homo sapiens, UniProt Q96SW2+Q9UJQ4)",
    "REPORTED": 0.999
  },
  {
    "COMPOUND": "CCOC(=O)CN(C)C1=CC(=O)N(C2CCC(=O)NC2=O)C1=O (stereo not drawn) [Compound 17]",
    "SYSTEM_UNDER_TEST": "SALL4 ZNF1-2 (Homo sapiens, UniProt Q96SW2+Q9UJQ4)",
    "REPORTED": 0.912
  },
  {
    "COMPOUND": "COC(=O)CN(C)C1=CC(=O)N(C2CCC(=O)NC2=O)C1=O (stereo not drawn) [Compound 15]",
    "SYSTEM_UNDER_TEST": "SALL4 ZNF1-2 (Homo sapiens, UniProt Q96SW2+Q9UJQ4)",
    "REPORTED": 0.910
  },
  {
    "COMPOUND": "O=C1CCC(N2C(=O)C=C(Nc3nccs3)C2=O)C(=O)N1 (stereo not drawn) [Compound 19]",
    "SYSTEM_UNDER_TEST": "SALL4 ZNF1-2 (Homo sapiens, UniProt Q96SW2+Q9UJQ4)",
    "REPORTED": 1.012
  },
  {
    "COMPOUND": "O=C1CCC(N2C(=O)C=C(Nc3ccc4cc[nH]c4c3)C2=O)C(=O)N1 (stereo not drawn) [Compound 37]",
    "SYSTEM_UNDER_TEST": "SALL4 ZNF1-2 (Homo sapiens, UniProt Q96SW2+Q9UJQ4)",
    "REPORTED": 0.865
  },
  {
    "COMPOUND": "O=C(O)CCCCNC1=CC(=O)N(C2CCC(=O)NC2=O)C1=O (stereo not drawn) [Compound 22]",
    "SYSTEM_UNDER_TEST": "SALL4 ZNF1-2 (Homo sapiens, UniProt Q96SW2+Q9UJQ4)",
    "REPORTED": 0.962
  },
  {
    "COMPOUND": "Cc1ccc(NC(=O)NCc2ccc(NC3=CC(=O)N(C4CCC(=O)NC4=O)C3=O)cc2)cc1Cl (stereo not drawn) [Compound 46]",
    "SYSTEM_UNDER_TEST": "SALL4 ZNF1-2 (Homo sapiens, UniProt Q96SW2+Q9UJQ4)",
    "REPORTED": 0.906
  }
]

====

Molecular target: CRBN and Helios (IKZF2) (Homo sapiens, UniProt Q96SW2+Q9UKS7)
Construct: His (N); Strep (N)
Sequence (Q96SW2 whole entry): as the sequence (Q96SW2 whole entry, the tested form may be a part) above
Sequence (Q9UKS7 whole entry): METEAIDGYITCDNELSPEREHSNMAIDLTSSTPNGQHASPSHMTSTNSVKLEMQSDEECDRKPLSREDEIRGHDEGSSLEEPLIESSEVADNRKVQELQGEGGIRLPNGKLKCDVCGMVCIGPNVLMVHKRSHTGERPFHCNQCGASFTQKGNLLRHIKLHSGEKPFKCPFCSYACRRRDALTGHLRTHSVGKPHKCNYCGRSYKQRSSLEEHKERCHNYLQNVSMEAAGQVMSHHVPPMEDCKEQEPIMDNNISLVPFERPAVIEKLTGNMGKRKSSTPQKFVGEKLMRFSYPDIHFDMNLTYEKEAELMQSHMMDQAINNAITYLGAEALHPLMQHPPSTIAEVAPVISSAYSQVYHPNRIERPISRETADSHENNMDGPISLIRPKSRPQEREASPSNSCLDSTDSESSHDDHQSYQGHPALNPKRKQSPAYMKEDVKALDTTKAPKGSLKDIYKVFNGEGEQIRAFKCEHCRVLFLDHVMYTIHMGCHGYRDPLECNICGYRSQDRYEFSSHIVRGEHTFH
Test: TR-FRET dimerization assay (CRBN-IKZF2 ternary complex formation)
Assay type: binding
Details: compound concentration 6.6667E−06; n=1
Reported TR-FRET-IKZF2 (Normalized to CC-885) values are given for each entry in this list.

[
  {
    "MOLECULE": "CN(C)C(=O)Cc1ccc(NC2=CC(=O)N(C3CCC(=O)NC3=O)C2=O)cc1 (stereo not shown)",
    "TR-FRET-IKZF2 (Normalized to CC-885)": 0.148
  },
  {
    "MOLECULE": "Cc1ccc(NC2=CC(=O)N(C3CCC(=O)NC3=O)C2=O)cc1C (stereo not shown)",
    "TR-FRET-IKZF2 (Normalized to CC-885)": 0.344
  },
  {
    "MOLECULE": "O=C1CCC(N2C(=O)C=C(Nc3nccs3)C2=O)C(=O)N1 (stereo not shown)",
    "TR-FRET-IKZF2 (Normalized to CC-885)": 0.041
  },
  {
    "MOLECULE": "O=C1CCC(N2C(=O)C=C(Nc3cccc(CCC(=O)Nc4ccc(C(F)(F)F)c(Cl)c4)c3)C2=O)C(=O)N1 (stereo not shown)",
    "TR-FRET-IKZF2 (Normalized to CC-885)": 1.551
  }
]

====

Molecular target: IKZF1 (Homo sapiens)
Construct: expressed in transfected cells; host or cells: Flp-In 293
Sequence (Q13422 83-213 isoform Q13422-7 limits assumed): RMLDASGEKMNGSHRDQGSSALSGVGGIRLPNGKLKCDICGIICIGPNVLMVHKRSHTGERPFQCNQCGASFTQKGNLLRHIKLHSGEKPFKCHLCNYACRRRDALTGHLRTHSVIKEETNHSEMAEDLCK
Sequence (Q96SW2 whole entry partner): as the sequence (Q96SW2 whole entry, the tested form may be a part) above
Sequence (Q16531 2-1140 partner limits assumed): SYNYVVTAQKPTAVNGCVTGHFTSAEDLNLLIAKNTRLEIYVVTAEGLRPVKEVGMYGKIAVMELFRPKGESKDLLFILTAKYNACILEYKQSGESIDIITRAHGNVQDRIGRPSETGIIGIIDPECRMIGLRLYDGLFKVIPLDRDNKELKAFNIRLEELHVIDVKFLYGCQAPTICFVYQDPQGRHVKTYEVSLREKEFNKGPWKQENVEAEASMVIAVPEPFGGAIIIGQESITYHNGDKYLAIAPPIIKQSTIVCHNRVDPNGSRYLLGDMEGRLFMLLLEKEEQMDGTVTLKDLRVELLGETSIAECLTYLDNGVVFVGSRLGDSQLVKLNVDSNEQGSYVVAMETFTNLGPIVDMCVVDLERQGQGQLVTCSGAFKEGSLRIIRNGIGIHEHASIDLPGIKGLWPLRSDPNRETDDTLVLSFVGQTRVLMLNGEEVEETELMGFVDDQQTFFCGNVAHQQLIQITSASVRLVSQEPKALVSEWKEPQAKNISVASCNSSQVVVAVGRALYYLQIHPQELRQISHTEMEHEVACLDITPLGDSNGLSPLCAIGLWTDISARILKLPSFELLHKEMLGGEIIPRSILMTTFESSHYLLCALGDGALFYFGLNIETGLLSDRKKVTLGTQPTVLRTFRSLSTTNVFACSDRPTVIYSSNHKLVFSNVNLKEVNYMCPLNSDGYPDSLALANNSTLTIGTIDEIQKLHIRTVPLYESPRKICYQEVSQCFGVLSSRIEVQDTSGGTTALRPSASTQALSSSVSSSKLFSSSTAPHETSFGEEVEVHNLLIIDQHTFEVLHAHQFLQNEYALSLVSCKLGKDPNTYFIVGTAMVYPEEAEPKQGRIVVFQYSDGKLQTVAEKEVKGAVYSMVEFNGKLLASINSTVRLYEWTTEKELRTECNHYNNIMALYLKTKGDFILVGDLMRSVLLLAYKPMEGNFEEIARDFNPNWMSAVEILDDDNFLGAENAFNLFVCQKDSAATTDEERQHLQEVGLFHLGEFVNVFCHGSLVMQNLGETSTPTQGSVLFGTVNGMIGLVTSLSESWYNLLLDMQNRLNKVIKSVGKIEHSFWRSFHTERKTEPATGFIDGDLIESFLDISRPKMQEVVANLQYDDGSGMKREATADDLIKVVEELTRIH
Test: Cellular degradation assay, eGFP-IKZF1Δ fusion with mCherry reporter in Flp-In 293 cells
Format: cell-based
Settings: compound concentration 2.00E−05; 5 h incubation; n=1
Readings of IKZF1 GFP/RFP Relative Abundance for the listed compounds
ATTRIBUTE_MEASURED: IKZF1 GFP/RFP Relative Abundance

[
  {
    "COMPOUND": "O=C1CCC(N2C(=O)C=C(Nc3nc[nH]n3)C2=O)C(=O)N1 (stereo not shown)",
    "REPORTED": 0.943
  },
  {
    "COMPOUND": "Cc1ccc(NC(=O)N[C@H](C)c2cccc(NC3=CC(=O)N(C4CCC(=O)NC4=O)C3=O)c2)cc1Cl (stereo partly shown)",
    "REPORTED": 0.076
  },
  {
    "COMPOUND": "CN(C)C(=O)c1ccc(NC2=CC(=O)N(C3CCC(=O)NC3=O)C2=O)cc1 (stereo not shown)",
    "REPORTED": 1.042
  },
  {
    "COMPOUND": "CCC(NC(=O)Nc1ccc(C)c(Cl)c1)c1cccc(NC2=CC(=O)N(C3CCC(=O)NC3=O)C2=O)c1 (stereo not shown)",
    "REPORTED": 0.096
  },
  {
    "COMPOUND": "Cc1ccc(N(C)C(=O)CCc2cccc(NC3=CC(=O)N(C4CCC(=O)NC4=O)C3=O)c2)cc1Cl (stereo not shown)",
    "REPORTED": 0.313
  },
  {
    "COMPOUND": "Cc1ccc(NC(=O)NCCNC2=CC(=O)N(C3CCC(=O)NC3=O)C2=O)cc1Cl (stereo not shown)",
    "REPORTED": 0.638
  },
  {
    "COMPOUND": "Cc1ccc(NC(=O)Nc2cccc3c(NC4=CC(=O)N(C5CCC(=O)NC5=O)C4=O)cccc23)cc1Cl (stereo not shown)",
    "REPORTED": 0.689
  },
  {
    "COMPOUND": "COC(=O)CN(C)C1=CC(=O)N(C2CCC(=O)NC2=O)C1=O (stereo not shown)",
    "REPORTED": 1.041
  },
  {
    "COMPOUND": "Cc1ccc(NC(=O)N2CCc3ccc(NC4=CC(=O)N(C5CCC(=O)NC5=O)C4=O)cc3C2)cc1Cl (stereo not shown)",
    "REPORTED": 0.189
  },
  {
    "COMPOUND": "O=C1CCC(N2C(=O)C=C(Nc3cccc(CNC(=O)Nc4ccccc4)c3)C2=O)C(=O)N1 (stereo not shown)",
    "REPORTED": 0.055
  },
  {
    "COMPOUND": "COC(=O)c1n[nH]c(NC2=CC(=O)N(C3CCC(=O)NC3=O)C2=O)n1 (stereo not shown)",
    "REPORTED": 0.721
  },
  {
    "COMPOUND": "Cc1ccc(NC2=CC(=O)N(C3CCC(=O)NC3=O)C2=O)cc1C (stereo not shown)",
    "REPORTED": 0.236
  },
  {
    "COMPOUND": "Cc1ccc(NC(=O)NC(CC(=O)N(C)C)c2cccc(NC3=CC(=O)N(C4CCC(=O)NC4=O)C3=O)c2)cc1Cl (stereo not shown)",
    "REPORTED": 0.103
  },
  {
    "COMPOUND": "Cc1ccc(NC2=CC(=O)N(C3CCC(=O)NC3=O)C2=O)cc1C#N (stereo not shown)",
    "REPORTED": 0.395
  },
  {
    "COMPOUND": "O=C1CCC(N2C(=O)C=C(Nc3cccc(NC(=O)Nc4ccc(Cl)c(Cl)c4)c3)C2=O)C(=O)N1 (stereo not shown)",
    "REPORTED": 1.190
  },
  {
    "COMPOUND": "CN(C)C(=O)Cc1cccc(NC2=CC(=O)N(C3CCC(=O)NC3=O)C2=O)c1 (stereo not shown)",
    "REPORTED": 0.154
  }
]
